- Tested on: HL-60
- protocolNotes: cell viability (% survival relative to DMSO control); higher = less cytotoxic
- particulars: 10 µM; 72 h; co-treatment: GSK2194069 100 nM
experimentalReadout: cell viability
Answers without a unit are incomplete; give the number and then its unit.

O=C(O)c1nn(Cc2ccc(Cl)cc2Cl)c2ccccc12 : 99.8%
C1CCc2nnc(C34CC5CC(CC(C5)C3)C4)n2CC1 : 109%
COc1cc2c(NC3CCN(C)CC3)nc(N3CCCN(C)CC3)nc2cc1OCCCN(C)C : 91.9%

Determine from records and report cell viability for O=C(c1ccc(OCCN2CCCCC2)cc1)c1c(-c2ccc(O)cc2)sc2cc(O)ccc12
70.9%

For the compound OCCN1CCN(CCCN2c3ccccc3Sc3ccc(Cl)cc32)CC1 , give its measured cell viability value.
55.4%

Given the compound CC(/C=C1\SC(=S)N(CC(=O)O)C1=O)=C\c1ccccc1 , write its reported cell viability.
94.2%
